test: Concentrations of precipitation in the α-glucosidase inhibition assay; format: physicochemical
Form field: Concentrations of precipitation (one value per entry).
measurement label: Concentrations of precipitation

[[record]]
molecule = "COc1cc(C=NNC(=O)c2cc(-c3ccccc3)nc3ccccc23)ccc1OCC(=O)Nc1ccc(Br)cc1 [11g]"
readout_value = "≥ 375 µM"

[[record]]
molecule = "COc1ccc(NC(=O)COc2ccc(C=NNC(=O)c3cc(-c4ccc(OC)cc4)nc4ccccc34)cc2OC)cc1 [11j]"
readout_value = "≥ 190 µM"

[[record]]
molecule = "COc1ccc(-c2cc(C(=O)NN=Cc3ccc(OCC(=O)Nc4ccccc4)c(OC)c3)c3ccccc3n2)cc1 [11h]"
readout_value = "≥ 375 µM"

[[record]]
molecule = "COc1ccc(-c2cc(C(=O)NN=Cc3ccc(OCC(=O)Nc4ccc(F)cc4)c(OC)c3)c3ccccc3n2)cc1 [11l]"
readout_value = "≥ 190 µM"


###

Assay: Concentrations of precipitation in the α-glucosidase inhibition assay
Type: physicochemical
Description: Table 1 The α-glucosidase inhibition assay of 11a–o. | column: Concentrations of precipitation (µM)
measurement label: Concentrations of precipitation

[[record]]
molecule = "COc1ccc(-c2cc(C(=O)NN=Cc3ccc(OCC(=O)Nc4ccc(Cl)cc4)c(OC)c3)c3ccccc3n2)cc1 [11n]"
measurement_label = "Concentrations of precipitation"
readout_value = "≥ 190 µM"

[[record]]
molecule = "COc1ccc(-c2cc(C(=O)NN=Cc3ccc(OCC(=O)Nc4ccc(Br)cc4)c(OC)c3)c3ccccc3n2)cc1 [11m]"
measurement_label = "Concentrations of precipitation"
readout_value = "≥ 190 µM"

[[record]]
molecule = "CCc1ccc(NC(=O)COc2ccc(C=NNC(=O)c3cc(-c4ccccc4)nc4ccccc34)cc2OC)cc1 [11d]"
measurement_label = "Concentrations of precipitation"
readout_value = "≥ 375 µM"

[[record]]
molecule = "COc1cc(C=NNC(=O)c2cc(-c3ccccc3)nc3ccccc23)ccc1OCC(=O)Nc1ccc(Cl)cc1 [11f]"
measurement_label = "Concentrations of precipitation"
readout_value = "≥ 375 µM"

[[record]]
molecule = "COc1cc(C=NNC(=O)c2cc(-c3ccccc3)nc3ccccc23)ccc1OCC(=O)Nc1ccc(C)cc1 [11b]"
measurement_label = "Concentrations of precipitation"
readout_value = "≥ 375 µM"


###

Form field: IC50 (one value per entry).
target: α-glucosidase (Saccharomyces cerevisiae, UniProt P53341); assay: biochemical; assay type: biochemical; conditions: α-glucosidase inhibition; mean ± SD
Sequence (P53341 whole entry): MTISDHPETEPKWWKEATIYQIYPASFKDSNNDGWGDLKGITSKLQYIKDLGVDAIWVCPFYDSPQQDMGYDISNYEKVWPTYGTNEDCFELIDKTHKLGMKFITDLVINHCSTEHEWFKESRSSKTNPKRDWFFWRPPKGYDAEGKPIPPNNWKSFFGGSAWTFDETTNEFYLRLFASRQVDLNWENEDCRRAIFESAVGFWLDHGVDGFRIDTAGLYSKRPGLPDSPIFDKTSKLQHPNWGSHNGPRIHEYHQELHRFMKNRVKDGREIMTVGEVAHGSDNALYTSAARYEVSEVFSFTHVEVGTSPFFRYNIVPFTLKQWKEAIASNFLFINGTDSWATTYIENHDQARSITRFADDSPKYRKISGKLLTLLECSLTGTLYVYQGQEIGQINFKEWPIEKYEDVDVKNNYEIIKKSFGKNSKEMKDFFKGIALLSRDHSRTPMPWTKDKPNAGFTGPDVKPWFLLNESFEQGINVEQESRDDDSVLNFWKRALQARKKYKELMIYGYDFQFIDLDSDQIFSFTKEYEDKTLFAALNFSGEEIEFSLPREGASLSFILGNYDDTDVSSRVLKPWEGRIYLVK
measurement label: IC50

[[record]]
molecule = "COc1ccc(NC(=O)COc2ccc(C=NNC(=O)c3cc(-c4ccccc4)nc4ccccc34)cc2OC)cc1 [11c]"
measurement_label = "IC50"
readout_value = "43.7 µM"

[[record]]
molecule = "COc1cc(C=NNC(=O)c2cc(-c3ccccc3)nc3ccccc23)ccc1OCC(=O)Nc1ccc(F)cc1 [11e]"
measurement_label = "IC50"
readout_value = "52.6 µM"

[[record]]
molecule = "COc1ccc(-c2cc(C(=O)NN=Cc3ccc(OCC(=O)Nc4ccc([N+](=O)[O-])cc4)c(OC)c3)c3ccccc3n2)cc1 [11o]"
measurement_label = "IC50"
readout_value = "460 µM"

[[record]]
molecule = "COc1cc(C=NNC(=O)c2cc(-c3ccccc3)nc3ccccc23)ccc1OCC(=O)Nc1ccc(C)cc1 [11b]"
measurement_label = "IC50"
readout_value = "95.2 µM"

[[record]]
molecule = "COc1cc(C=NNC(=O)c2cc(-c3ccccc3)nc3ccccc23)ccc1OCC(=O)Nc1ccc(Cl)cc1 [11f]"
measurement_label = "IC50"
readout_value = "> 750 µM"

[[record]]
molecule = "COc1ccc(-c2cc(C(=O)NN=Cc3ccc(OCC(=O)Nc4ccccc4)c(OC)c3)c3ccccc3n2)cc1 [11h]"
measurement_label = "IC50"
readout_value = "62.4 µM"

[[record]]
molecule = "CCc1ccc(NC(=O)COc2ccc(C=NNC(=O)c3cc(-c4ccc(OC)cc4)nc4ccccc34)cc2OC)cc1 [11k]"
measurement_label = "IC50"
readout_value = "26 µM"

[[record]]
molecule = "COc1ccc(-c2cc(C(=O)NN=Cc3ccc(OCC(=O)Nc4ccc(Br)cc4)c(OC)c3)c3ccccc3n2)cc1 [11m]"
measurement_label = "IC50"
readout_value = "152 µM"

[[record]]
molecule = "CCc1ccc(NC(=O)COc2ccc(C=NNC(=O)c3cc(-c4ccccc4)nc4ccccc34)cc2OC)cc1 [11d]"
measurement_label = "IC50"
readout_value = "157 µM"

[[record]]
molecule = "COc1cc(C=NNC(=O)c2cc(-c3ccccc3)nc3ccccc23)ccc1OCC(=O)Nc1ccccc1C [11a]"
measurement_label = "IC50"
readout_value = "34.8 µM"

[[record]]
molecule = "COc1cc(C=NNC(=O)c2cc(-c3ccccc3)nc3ccccc23)ccc1OCC(=O)Nc1ccc(Br)cc1 [11g]"
measurement_label = "IC50"
readout_value = "181 µM"

[[record]]
molecule = "COc1ccc(-c2cc(C(=O)NN=Cc3ccc(OCC(=O)Nc4ccccc4C)c(OC)c3)c3ccccc3n2)cc1 [11i]"
measurement_label = "IC50"
readout_value = "71.2 µM"

[[record]]
molecule = "COc1ccc(-c2cc(C(=O)NN=Cc3ccc(OCC(=O)Nc4ccc(F)cc4)c(OC)c3)c3ccccc3n2)cc1 [11l]"
measurement_label = "IC50"
readout_value = "> 750 µM"

[[record]]
molecule = "COc1ccc(-c2cc(C(=O)NN=Cc3ccc(OCC(=O)Nc4ccc(Cl)cc4)c(OC)c3)c3ccccc3n2)cc1 [11n]"
measurement_label = "IC50"
readout_value = "48.7 µM"

[[record]]
molecule = "COc1ccc(NC(=O)COc2ccc(C=NNC(=O)c3cc(-c4ccc(OC)cc4)nc4ccccc34)cc2OC)cc1 [11j]"
measurement_label = "IC50"
readout_value = "61.8 µM"

